Target: human GcgR (Homo sapiens)
Sequence (P47871 26-477): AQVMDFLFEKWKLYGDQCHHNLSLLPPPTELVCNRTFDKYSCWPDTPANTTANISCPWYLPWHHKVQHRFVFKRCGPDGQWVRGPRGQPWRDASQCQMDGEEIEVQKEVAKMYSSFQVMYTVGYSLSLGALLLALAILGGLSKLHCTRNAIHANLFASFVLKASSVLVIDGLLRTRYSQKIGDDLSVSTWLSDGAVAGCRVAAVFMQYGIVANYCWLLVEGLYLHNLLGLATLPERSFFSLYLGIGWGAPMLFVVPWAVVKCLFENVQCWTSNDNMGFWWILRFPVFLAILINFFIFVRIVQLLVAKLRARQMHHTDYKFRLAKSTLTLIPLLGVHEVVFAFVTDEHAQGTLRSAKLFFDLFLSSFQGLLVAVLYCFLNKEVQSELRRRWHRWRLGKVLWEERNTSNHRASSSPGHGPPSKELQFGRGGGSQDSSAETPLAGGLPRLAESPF
Assay: Functional cAMP activity in the presence of 1% HSA
Assay type: cell-based
Conditions: read-out: cAMP Rel EC50, hGcgR
Starred links: 1 amine or outer side, 2 acyl side, 3 side chain; linkers in the order of their positions; H or OH if unused. Non-standard residues stand in square brackets, D forms with d. Groups on a side chain read outwards from the residue. *: point of attachment. C20 diacid = O=C(O)CCCCCCCCCCCCCCCCCCC(=O)*; C18 diacid = O=C(O)CCCCCCCCCCCCCCCCC(=O)*; αMePhe(2-F) = C[C@](N)(Cc1ccccc1F)C(=O)O; γGlu = O=C(O)[C@H](CCC(=O)[*:2])N[*:1]; αMe4Pal = C[C@](N)(Cc1ccncc1)C(=O)O; αMeY = C[C@](N)(Cc1ccc(O)cc1)C(=O)O; 4Pal = N[C@@H](Cc1ccncc1)C(=O)O; αMeL = CC(C)C[C@](C)(N)C(=O)O; αMeS = C[C@](N)(CO)C(=O)O; Orn = NCCC[C@H](N)C(=O)O; AEEA = NCCOCCOCC(=O)O; Aib = CC(C)(N)C(=O)O
Reported EC50 values follow for various substances
reported_property: EC50 (nM)

H-Y[Aib]QGT[αMePhe(2-F)]TSD[4Pal][αMeS]I[αMeL]LD[Orn]K([AEEA-γGlu-C18 diacid])AA[Aib]EFI[dE][αMeY]LVEGGPSSGAPPPSGS-NH2 [Example 693]: 304
H-Y[Aib]QGT[αMePhe(2-F)]TSD[4Pal][αMeS]I[αMeL]LD[Orn]K([γGlu-γGlu-C18 diacid])AQ[Aib]NFI[dE][αMeY]LIEGGPSSGEPEPSEG-NH2 [Example 473]: 311
H-Y[Aib]QGTFTSDFSK[αMeL]LDKK([AEEA-γGlu-C20 diacid])AQ[Aib]AFIEYLLEGGPSSGAPPP[γGlu]EG-NH2 [Example 52]: 1740
H-Y[Aib]QGT[αMePhe(2-F)]TSD[4Pal]SI[αMeL]LD[Orn]K([AEEA-γGlu-C18 diacid])AQ[αMe4Pal][Orn]FI[dE][αMeY]LIEGGPSSGEPPPSGS-NH2 [Example 706]: 240
H-Y[Aib]QGT[αMePhe(2-F)]TSD[4Pal][αMeS]I[αMeL]LD[Orn]K([AEEA-γGlu-C18 diacid])AQ[αMe4Pal]EFI[dE][αMeY]LVEGGPSSGEPPPSGS-NH2 [Example 733]: 207

Entry source: patent US20240270821A1
